System: OVCAR8
TEST PROTOCOL: drug sensitivity score (DSS2) on cancer cell count; higher = more sensitive; extreme values may be limits of the assay
RECORDED CONDITIONS: co-cultured fibroblast: WI38; 72 h
METRIC: drug sensitivity score (DSS)

- Nc1nc(Cl)nc2c1ncn2[C@@H]1O[C@H](CO)[C@@H](O)[C@@H]1F [Clofarabine]: 28.7
- COc1c(C)cnc(Cn2cnc3c(Cl)nc(N)nc32)c1C [BIIB021]: 21.8
- CC(C)Nc1cc(-c2c[nH]c(C(=O)N[C@H](CO)c3cccc(Cl)c3)c2)c(Cl)cn1 [Ulixertinib]: 13.9
- CO[C@@H]1[C@H](N(C)C(=O)c2ccccc2)C[C@H]2O[C@]1(C)n1c3ccccc3c3c4c(c5c6ccccc6n2c5c31)C(=O)NC4 [Midostaurin]: 16.5

* * *

Tested on: OVCAR8
TEST PROTOCOL: drug sensitivity score (DSS2) on cancer cell count; higher = more sensitive; extreme values may be limits of the assay
RECORDED CONDITIONS: co-cultured fibroblast: WI38; 72 h
METRIC: drug sensitivity score (DSS)

- COc1ccc(C[C@H](NC(=O)[C@H](C)NC(=O)CN2CCOCC2)C(=O)N[C@@H](Cc2ccccc2)C(=O)C2(C)CO2)cc1 (stereo in doubt): 16.1
- COc1ccc(CCc2nc3cc(-c4c(C)noc4C)ccc3n2C[C@H](C)N2CCOCC2)cc1Cl: 1.7
- NC(=O)N1CCC(CC(=O)N2CCC([C@H]3c4ncc(Br)cc4CCc4cc(Cl)cc(Br)c43)CC2)CC1: 4.9
- C[C@H]1C[C@@H]2[C@H]([C@@H](O)C[C@@]3(C)[C@H]2CC[C@]3(O)C(=O)CO)[C@@]2(C)C=CC(=O)C=C12: 0
- CNC(=O)[C@@H](NC(=O)[C@H](CC(C)C)[C@H](O)C(=O)NO)C(C)(C)C: 1.4
- Cc1c(-c2c(-c3ccc(F)o3)sc3ncnc(O[C@H](Cc4ccccc4OCc4ccnn4CC(F)(F)F)C(=O)O)c23)ccc(OCCN2CCN(C)CC2)c1Cl: 0
- CN1C(=O)N[C@H](Cc2c[nH]c3c(Cl)cccc23)C1=O: 0
- Cc1cnc(Nc2ccc(OCCN3CCCC3)cc2)nc1Nc1cccc(S(=O)(=O)NC(C)(C)C)c1: 5.2
- Cc1ccc(C(=O)N(CCCN)[C@@H](c2oc3cc(Cl)ccc3c(=O)c2Cc2ccccc2)C(C)C)cc1: 7.6
- CC(=O)O[C@H]1C(=O)[C@@]2(C)[C@H]([C@H](OC(=O)c3ccccc3)[C@]3(O)C[C@H](OC(=O)[C@H](O)[C@@H](NC(=O)c4ccccc4)c4ccccc4)C(C)=C1C3(C)C)[C@]1(OC(C)=O)CO[C@@H]1C[C@@H]2O: 30.9
- CC(C)N(CCCNC(=O)Nc1ccc(C(C)(C)C)cc1)C[C@H]1O[C@@H](n2cc(Br)c3c(N)ncnc32)[C@H](O)[C@@H]1O: 0
- CC[C@@H]1[C@H](F)C(=O)N[C@@H]1COc1nccc2cc(C(N)=O)c(OC)cc12: 10.1
- Cc1sc2c(c1C)C(c1ccc(Cl)cc1)=N[C@@H](CC(=O)Nc1ccc(O)cc1)c1nnc(C)n1-2: 8.7
- CCCCCCCCCCCCCCCCCCOP(=O)([O-])OC1CC[N+](C)(C)CC1: 0

* * *

Tested on: KURAMOCHI
TEST PROTOCOL: drug sensitivity score (DSS2) on cancer cell count; higher = more sensitive; extreme values may be limits of the assay
RECORDED CONDITIONS: co-cultured fibroblast: BJHTERT; 72 h
Measured drug sensitivity score values are reported for all entries that follow.
METRIC: drug sensitivity score (DSS)

• C[C@]12C=CC(=O)C=C1CC[C@@H]1[C@@H]2[C@@H](O)C[C@@]2(C)[C@H]1CC[C@]2(O)C(=O)CO = 0
• Nc1nc(Cl)nc2c1ncn2[C@H]1C[C@H](O)[C@@H](CO)O1 = 5.2
• Cn1cc(C[C@@H](N)C(=O)O)c2ccccc21 = 0
• C=CC(=O)N1CCC[C@@H](n2nc(-c3ccc(Oc4ccccc4)cc3)c3c(N)ncnc32)C1 = 3.1
• CC(C)(C#N)c1cc(Cn2cncn2)cc(C(C)(C)C#N)c1 = 0
• C[C@]12CC[C@H](O)CC1=CC[C@@H]1[C@@H]2CC[C@]2(C)C(c3cccnc3)=CC[C@@H]12 = 0
• CN1CCN(c2cc(C(=O)Nc3ccc4c(c3)-c3c(c(C(N)=O)nn3-c3ccc(F)cc3)CC4)c(Cl)cn2)CC1 = 5.8
• CC(=O)O[C@]1(C(C)=O)CC[C@H]2[C@@H]3C=C(C)C4=CC(=O)CC[C@]4(C)[C@H]3CC[C@@]21C [Megestrol acetate] = 0
• O=C(O)CC1CC(c2ccccc2)=NO1 (stereo unspecified) = 0
• Cc1ccc(F)c(NC(=O)Nc2ccc(-c3cccc4[nH]nc(N)c34)cc2)c1 = 0
• Cc1ccc(C(=O)N(CCCN)[C@@H](c2oc3cc(Cl)ccc3c(=O)c2Cc2ccccc2)C(C)C)cc1 = 8.3
• CNC(=O)c1cc(Oc2ccc(NC(=O)Nc3ccc(Cl)c(C(F)(F)F)c3)cc2)ccn1 = 0
• COCCOc1cnc2ccn([C@H](C)c3nnc4c(F)cc(-c5cnn(C)c5)cn34)c(=O)c2c1 = 0
• CCn1cc(-c2ccnc3[nH]c(-c4cccc(CN(C)C)c4)cc23)c(-c2ccc(NC(=O)N(C)C)cc2)n1 = 13.7
• CN1CCN(CCOc2cc(OC3CCOCC3)c3c(Nc4c(Cl)ccc5c4OCO5)ncnc3c2)CC1 = 10.4
• Cn1c(Nc2ccc(C(F)(F)F)cc2)nc2cc(Oc3ccnc(-c4ncc(C(F)(F)F)[nH]4)c3)ccc21 = 2.2

* * *

Tested on: KURAMOCHI
TEST PROTOCOL: drug sensitivity score (DSS2) on cancer cell count; higher = more sensitive; extreme values may be limits of the assay
RECORDED CONDITIONS: co-cultured fibroblast: WI38; 72 h
Returns one of Satisfied or Not satisfied; Satisfied when drug sensitivity score is >= 0.6 DSS.

* Cc1cc(Nc2cc(N3CCN(C)CC3)nc(Sc3ccc(NC(=O)C4CC4)cc3)n2)n[nH]1 [Tozasertib] | Satisfied
* COCCNCc1ccc(-c2cc3nccc(Oc4ccc(NC(=O)C5(C(=O)Nc6ccc(F)cc6)CC5)cc4F)c3s2)nc1 [Sitravatinib] | Satisfied
* COc1cc(CCc2cc(NC(=O)c3ccc(N4CC(C)NC(C)C4)cc3)n[nH]2)cc(OC)c1 (stereo not given) [AZD4547] | Not satisfied
* CCNC(=O)CCC/C=C\C[C@@H]1[C@@H](/C=C/[C@@H](O)CCc2ccccc2)[C@H](O)C[C@@H]1O [Bimatoprost] | Not satisfied
* CC1=C2C[C@H]3[C@@H](CC[C@@H]4C[C@H](NS(C)(=O)=O)CC[C@@]43C)[C@@H]2CC[C@@]2(C1)O[C@@H]1C[C@H](C)CN[C@H]1[C@H]2C [Saridegib] | Satisfied
* COc1cc(OC2CCN(C)CC2)ccc1Nc1ncc2c(n1)n(C1CCCC1)c(=O)n2C [AZ 3146] | Satisfied
* COc1cccc2c1C(=O)c1c(O)c3c(c(O)c1C2=O)C[C@@](O)(C(=O)CO)C[C@@H]3O[C@H]1C[C@H](N)[C@@H](O)[C@H](C)O1 [Epirubicin] | Satisfied
* CC#CC(=O)N1CCC[C@H]1c1nc(-c2ccc(C(=O)Nc3ccccn3)cc2)c2c(N)nccn12 [Acalabrutinib] | Not satisfied
* CC[C@@H]1C(=O)OC[C@@H]1Cc1cncn1C [Pilocarpine] | Not satisfied
* CC[C@H](CC#N)OC(=O)N[C@@H](C)c1cccc(NC(=O)Nc2ccc(-c3cnco3)c(OC)c2)c1 [AVN944] | Satisfied
* CC(C)C[C@H](NC(=O)[C@H](Cc1ccccc1)NC(=O)c1cnccn1)B(O)O [Bortezomib] | Satisfied
* CN1CCN(C2CCN(C(=O)Nc3cc(Oc4ccc(NC(=O)C5(C(=O)Nc6ccc(F)cc6)CC5)c(F)c4)ccn3)CC2)CC1 [Golvatinib] | Not satisfied
* O=C(O)C1(C(=O)O)CCC1.[NH2-].[NH2-].[Pt+2] [Carboplatin] | Satisfied
* C[C@@H]1CN(Cc2ccc(F)cc2)[C@@H](C)CN1C(=O)c1cc2c(C(=O)C(=O)N(C)C)cn(C)c2cc1Cl [Talmapimod] | Not satisfied

* * *

Tested on: OVCAR8
TEST PROTOCOL: drug sensitivity score (DSS2) on cancer cell count; higher = more sensitive; extreme values may be limits of the assay
RECORDED CONDITIONS: co-cultured fibroblast: WI38; 72 h
Measured drug sensitivity score values are reported for all entries that follow.
METRIC: drug sensitivity score (DSS)

* O=C(Nc1cccc(NC(=O)c2cccc(O)c2O)c1)c1cccc(O)c1O [MST-312] | 15.4
* N[C@@H]1CCCN(c2c(/C=C3\SC(=O)NC3=O)cccc2-c2ccccc2)C1 [AZD1208] | 0
* CN(C)C(=O)c1cc2cnc(Nc3ccc(N4CCNCC4)cn3)nc2n1C1CCCC1 [Ribociclib] | 0
* CCCCNc1ncc(C(=O)NCc2ccc(-n3ccnc3)cc2)c(NC2CCC(O)CC2)n1 (stereo not drawn) [UNC2881] | 1.1
* O=c1[nH]c(C2CCCN2)nc2c1oc1ccc(Cl)cc12 (stereo not drawn) | 1.8
* CC[C@H](C)C(=O)O[C@H]1C[C@@H](C)C=C2C=C[C@H](C)[C@H](CC[C@@H]3C[C@@H](O)CC(=O)O3)[C@H]21 [Lovastatin] | 8.4
* CNC(=O)c1ccc2cc([C@@]3(O)CCn4cncc43)ccc2c1 [Orteronel] | 0.3
* C[C@]12CC[C@H](O)CC1=CC[C@@H]1[C@@H]2CC[C@]2(C)C(c3cccnc3)=CC[C@@H]12 [Abiraterone] | 0
